- measured.on: KATP channels in large DRG neurons (Rattus norvegicus, UniProt P70673+Q09429)
- Construct: native KATP channels in large DRG neurons; endogenous in cells; host or cells: acutely dissociated large-diameter neurons from rat L4/L5 dorsal root ganglia (sham-operated or spinal nerve ligated animals)
- Sequence (Q09429 whole entry): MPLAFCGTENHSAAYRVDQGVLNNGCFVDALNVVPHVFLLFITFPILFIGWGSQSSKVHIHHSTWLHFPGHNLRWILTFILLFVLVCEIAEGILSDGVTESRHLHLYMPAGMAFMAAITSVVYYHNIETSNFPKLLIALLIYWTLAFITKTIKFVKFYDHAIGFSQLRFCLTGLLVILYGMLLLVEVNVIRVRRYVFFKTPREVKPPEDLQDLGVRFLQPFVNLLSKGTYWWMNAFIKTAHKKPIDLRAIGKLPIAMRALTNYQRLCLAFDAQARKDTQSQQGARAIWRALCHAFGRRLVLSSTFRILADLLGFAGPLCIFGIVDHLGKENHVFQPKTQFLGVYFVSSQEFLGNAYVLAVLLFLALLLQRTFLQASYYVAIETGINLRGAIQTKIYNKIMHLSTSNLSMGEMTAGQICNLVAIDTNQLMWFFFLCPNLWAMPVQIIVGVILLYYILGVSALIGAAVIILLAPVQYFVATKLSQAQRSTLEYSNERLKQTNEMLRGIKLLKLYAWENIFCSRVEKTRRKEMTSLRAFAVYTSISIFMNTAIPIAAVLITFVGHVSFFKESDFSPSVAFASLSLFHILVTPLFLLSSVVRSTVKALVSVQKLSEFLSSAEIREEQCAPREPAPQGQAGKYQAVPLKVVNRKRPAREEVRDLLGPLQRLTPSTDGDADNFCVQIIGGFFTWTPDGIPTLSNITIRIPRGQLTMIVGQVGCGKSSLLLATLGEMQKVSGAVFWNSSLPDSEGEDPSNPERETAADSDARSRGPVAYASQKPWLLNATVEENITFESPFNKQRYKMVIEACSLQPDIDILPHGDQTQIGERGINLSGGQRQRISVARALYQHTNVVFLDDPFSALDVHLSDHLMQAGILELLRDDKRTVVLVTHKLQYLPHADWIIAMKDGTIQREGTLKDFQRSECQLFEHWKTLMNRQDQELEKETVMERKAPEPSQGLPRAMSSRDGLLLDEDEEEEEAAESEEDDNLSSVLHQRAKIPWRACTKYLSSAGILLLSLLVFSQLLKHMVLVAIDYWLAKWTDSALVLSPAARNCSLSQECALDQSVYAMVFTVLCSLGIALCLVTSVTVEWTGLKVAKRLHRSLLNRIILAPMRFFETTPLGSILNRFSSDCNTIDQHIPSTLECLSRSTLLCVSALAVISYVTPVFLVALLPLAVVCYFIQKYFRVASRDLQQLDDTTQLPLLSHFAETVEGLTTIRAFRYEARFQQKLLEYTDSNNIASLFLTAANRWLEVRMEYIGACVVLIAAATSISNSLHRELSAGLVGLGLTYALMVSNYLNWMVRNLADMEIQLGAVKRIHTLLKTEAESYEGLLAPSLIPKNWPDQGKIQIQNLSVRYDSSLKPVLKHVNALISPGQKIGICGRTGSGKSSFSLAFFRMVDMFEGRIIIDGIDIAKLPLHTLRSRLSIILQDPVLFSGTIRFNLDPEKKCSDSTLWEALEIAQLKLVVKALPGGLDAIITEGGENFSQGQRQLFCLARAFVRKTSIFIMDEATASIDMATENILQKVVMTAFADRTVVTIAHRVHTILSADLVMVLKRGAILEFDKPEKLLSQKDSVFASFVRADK
- Sequence (P70673 whole entry): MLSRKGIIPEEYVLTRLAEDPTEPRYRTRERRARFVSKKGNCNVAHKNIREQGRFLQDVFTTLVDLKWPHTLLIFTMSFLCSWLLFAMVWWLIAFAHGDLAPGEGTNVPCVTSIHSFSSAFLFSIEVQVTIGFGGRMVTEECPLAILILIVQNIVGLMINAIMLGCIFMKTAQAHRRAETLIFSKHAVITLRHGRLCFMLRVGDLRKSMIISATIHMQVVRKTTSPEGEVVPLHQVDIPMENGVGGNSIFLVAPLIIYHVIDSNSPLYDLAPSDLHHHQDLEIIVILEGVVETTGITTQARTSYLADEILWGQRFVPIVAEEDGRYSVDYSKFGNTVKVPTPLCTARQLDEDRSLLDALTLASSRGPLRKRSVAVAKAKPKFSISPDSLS
- method.notes: Excised inside-out (cell-free) patch-clamp recording of KATP channel activity
- Type: biochemical
- reported.conditions: agent alone, vs. baseline/control
metric: direct effect on KATP channels in inside-out patches

>>> reported_measurement("COC(=O)[C@@H](N)CCCNC(N)=N[N+](=O)[O-] [L-NAME, NG-nitro-L-arginine methyl ester]")
"no direct effect"
>>> reported_measurement("O[C@@H](CS)[C@@H](O)CS (racemic) [DTT, di-thiothreitol]")
"no direct effect"
